Give binding signal for every item shown.
# Tgt: T1, RBFOX1 RRM (Homo sapiens, UniProt Q9NWB1 109-208)
# T1 sequence: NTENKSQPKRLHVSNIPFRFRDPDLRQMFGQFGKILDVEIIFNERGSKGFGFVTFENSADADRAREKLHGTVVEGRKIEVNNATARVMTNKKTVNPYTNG
# Assay Procedure: EMSA; HiTS-Eq, 1 nM pool, 10 min; buffer printed only for the single-RNA assays: 10 mM Tris pH 7.5, 150 mM NaCl, 3.4 mM EDTA, 0.001% NP-40, 30 C
# Condition Context: tags: His6 N-terminal (pET28a); label: 5' 32P
Whole data set: some 16,000 sequences, median “ka relative to ugcaugu” near 0.0091, cut for the highest 2% near 0.032. This excerpt belongs to a sample that is enriched for the highest values.

Please look up its binding signal: GACUUAC (DNA:RNA) RNA: GGGAGACCGGAAUUCAGAUUGUCCGACUUACUUAAAUCCCGUCGUAGCCACCA DNA 1: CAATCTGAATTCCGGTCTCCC DNA 2: TGGTGGCTACGACGGGATT
0.00749 KA relative to UGCAUGU

Then there is this binder:
Sample CGUACUC (DNA:RNA) RNA: GGGAGACCGGAAUUCAGAUUGUCCCGUACUCUUAAAUCCCGUCGUAGCCACCA DNA 1: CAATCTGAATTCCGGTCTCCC DNA 2: TGGTGGCTACGACGGGATT — what was its binding signal?
0.00584 KA relative to UGCAUGU
